B1: library; numbered along this chain (parent)
chain: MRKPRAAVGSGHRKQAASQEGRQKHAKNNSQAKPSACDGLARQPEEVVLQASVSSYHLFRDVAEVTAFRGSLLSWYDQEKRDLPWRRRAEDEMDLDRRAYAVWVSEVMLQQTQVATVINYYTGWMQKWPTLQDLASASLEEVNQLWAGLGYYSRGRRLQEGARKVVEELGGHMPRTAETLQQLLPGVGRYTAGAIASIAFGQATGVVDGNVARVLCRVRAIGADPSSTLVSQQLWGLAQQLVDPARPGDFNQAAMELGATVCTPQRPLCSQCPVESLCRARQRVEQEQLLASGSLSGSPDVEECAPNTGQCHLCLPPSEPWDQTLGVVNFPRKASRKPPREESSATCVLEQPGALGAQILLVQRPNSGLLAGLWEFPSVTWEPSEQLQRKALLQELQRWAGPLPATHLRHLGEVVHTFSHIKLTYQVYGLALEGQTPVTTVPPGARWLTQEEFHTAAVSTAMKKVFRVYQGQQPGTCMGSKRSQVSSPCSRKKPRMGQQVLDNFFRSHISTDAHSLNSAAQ

Variants of: B1
Assay: 8OG:A repair function score (normalized; synonymous = 0, nonsense = -1) (normalized log-likelihood score); higher = more repair activity (WT-like);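 further: cells sorted at 72 h after reporter transfection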
Conditions: with 8OG:A DNA repair reporter (GFP) in HEK-293 MUTYH KO cells
observed-property: 8OG:A repair function score

> print(dat)
    mutant.code            observed.property  experimental.value
 1        L268Q  8OG:A repair function score             -0.0131
 2        G475T  8OG:A repair function score             -0.0403
 3        V438H  8OG:A repair function score               -0.17
 4        V438T  8OG:A repair function score             -0.0976
 5        H416T  8OG:A repair function score              0.0616
 6         A63H  8OG:A repair function score             -0.0822
 7        W124S  8OG:A repair function score              -0.825
 8        G236F  8OG:A repair function score              0.0301
 9        V427E  8OG:A repair function score               -1.24
10        D224H  8OG:A repair function score              -0.924
11        C347F  8OG:A repair function score              -0.387
12        A254P  8OG:A repair function score              -0.979
13        T260G  8OG:A repair function score              -0.126
14        C216P  8OG:A repair function score               -0.98
15         D96M  8OG:A repair function score              -0.441
16        T380H  8OG:A repair function score              -0.465
17        S480I  8OG:A repair function score             -0.0226
18        N307C  8OG:A repair function score              -0.119
19        L257E  8OG:A repair function score               -1.08
20        H514V  8OG:A repair function score              0.0053
21         L49M  8OG:A repair function score               0.233
22        R279P  8OG:A repair function score               -1.12
23        G444T  8OG:A repair function score            -0.00488
24        V206F  8OG:A repair function score              -0.894
25         E45S  8OG:A repair function score             -0.0822
26        A199E  8OG:A repair function score               -1.06
27        D322H  8OG:A repair function score              -0.147
28        P174T  8OG:A repair function score              -0.922
29        F376H  8OG:A repair function score              -0.879
30         V62W  8OG:A repair function score             -0.0135
31        D322F  8OG:A repair function score             -0.0672
32        G434C  8OG:A repair function score               0.163
33        G150V  8OG:A repair function score               -1.22
34        G356N  8OG:A repair function score              -0.277
35        P247G  8OG:A repair function score              -0.799
36        A291Y  8OG:A repair function score              0.0195
37        D512G  8OG:A repair function score            -0.00398
38        K390E  8OG:A repair function score             -0.0669
39        R266P  8OG:A repair function score              -0.449
40        A115G  8OG:A repair function score             -0.0228
41        W381C  8OG:A repair function score                0.15
42        G353T  8OG:A repair function score              0.0569
43        H508G  8OG:A repair function score            -0.00256
44         E90L  8OG:A repair function score              0.0056
45         S71G  8OG:A repair function score           -0.000985
46        Q435D  8OG:A repair function score              0.0234
47        Q240D  8OG:A repair function score              -0.979
48         R86S  8OG:A repair function score               -1.03
49        R157S  8OG:A repair function score              -0.182
50        P331R  8OG:A repair function score              -0.474
51        S292G  8OG:A repair function score            -0.00959
52        H454A  8OG:A repair function score               0.182
53        Q265G  8OG:A repair function score             -0.0557
54        T176E  8OG:A repair function score              -0.128
55         F59L  8OG:A repair function score              -0.095
56        A520T  8OG:A repair function score           -0.000144
57        P437D  8OG:A repair function score              -0.128
58        C304E  8OG:A repair function score              -0.556
59        G429W  8OG:A repair function score              -0.114
60        C314Y  8OG:A repair function score              -0.572
61         A67G  8OG:A repair function score             -0.0739
62         A89Q  8OG:A repair function score             -0.0663
63        R467G  8OG:A repair function score             -0.0609
64         K80P  8OG:A repair function score              -0.105
65        C311A  8OG:A repair function score              -0.544
66        W321G  8OG:A repair function score              -0.258
67        R364H  8OG:A repair function score              -0.405
68         A63C  8OG:A repair function score             -0.0141
69        W447A  8OG:A repair function score              -0.968
70        C311S  8OG:A repair function score              -0.588
71        E275G  8OG:A repair function score            -0.00445
72        D243L  8OG:A repair function score              -0.818
73        R340L  8OG:A repair function score              -0.211
74        S335T  8OG:A repair function score               0.005
75        Q132G  8OG:A repair function score              -0.076
